TARGET SYSTEM: Ec FimHLD
PROTOCOL TEXT: ELISA
RECORDED METRIC: EC50 (µg/mL)
Numbers only; they are read as µg/mL.

Recorded result, Kp 2H07 (antibody, V domains shown) VH: EVQLQQSGPVLVKPGPSVNISCKASGFTFTDYYIHWVKQSHGKSLEWIGLVYPYSGGTYYNQKFKGKATLTVDASSSTAYMELGSLTSEDSAVYYCARLGDNFYYFDYWGQGTTLTVSS VL: QIVLTQSPTLMAASPGEKVTITCSVSSSISSSNLHWYQQKSETSPKPWIYGTSNLASGVPVRFSGSGSGTSYSLTISSMEAEDAATYYCQQWRSYPYTFGGGTKLEIKR , EC50: 0.0104

Recorded result, Kp 2D04 (antibody, V domains shown) VH: EVQLQQPGGELVRPGSSVKMSCKTSGYTFTFYGINWVKQRPGQGLEWIGYIYVGNGYTEYNEKFKVKATLTSDTSSSTAYMQLSGLTSEDSAIYFCARSDGYNYFDYWGQGTTLTVSS VL: QIVLTQSPAILTASPGEKVTMTCRASSSVHYMHWYQQKPGSSPKPWIYATSNLASGVPARFSGSGSGTSYSLTISRVEAEDTATYYCHQWSSNPPTFGAGTKLEIKR , EC50: 0.0121

Recorded result, Kp 1E07 (antibody, V domains shown) VH: EVQLQQPGAELVKPGASVKLSCKASGYTFTSYWMHWVKQRPGQGLEWIGLIHPNSGSTYYNEKFKNKATLTVDKSSSTAYMQLSSLTSEDSAVYYCARWDDSYWYFKVWGTGTTVTVSS VL: QIVLTQSPAILSASPGEKVTMTCRASSSVSYMHWYQQKPGSSPKPWIYATSNLASGVPARFSGSGSGTSYSLTISRVEAEDAATYYCQQWSSNPYTFGGGTKLEIKR , EC50: 0.0094
